B1: PLAGL1 (parent)
chain: LELGSTEVLLDHLKAHAEEKPPSG

Variants of: B1
Assay: protein stability index of a GFP-peptide fusion (GPS, HEK-293T) (PSI 1-6); higher = more stable;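 also: lentivirally expressed fusions sorted by FACS into six bins by GFP to DsRed ratio, PSI derived from sequencing read proportions per bin multiplied by bin number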
Conditions: c terminus: a fixed tail appended
Provide the recorded protein stability index for the entries that follow.
Answers are plain numbers.

Could you tell me protein stability index for each of these variants? They are listed below.
1. LELGSTEVLLDHLKAHAEFKPPSG [E19F]
2. LELGSTEVLLDFLKAHAEEKPPSG [H12F]
3. LELGSTEVLLDWLKAHAEEKPPSG [H12W]

2.33
2.71
3

Could you tell me protein stability index for each of these variants? They are listed below.
1. LELGSTEVLLDHLKCHAEEKPPSG [A15C]
2. LELGSTEVLLDHLKAHAEENPPSG [K20N]
3. LELGSTEILLDHLKAHAEEKPPSG [V8I]
4. LELGSTEVLLNHLKAHAEEKPPSG [D11N]
5. LELLSTEVLLDHLKAHAEEKPPSG [G4L]

1. 4.04
2. 4.58
3. 3.91
4. 4.29
5. 2.77

Could you tell me protein stability index for each of these variants? They are listed below.
1. LELGSTEVLLDHLKAHSEEKPPSG [A17S]
2. LELGSTEVLLDHLKAAAEEKPPSG [H16A]
3. LELGSTEVLLDHYKAHAEEKPPSG [L13Y]
4. LELGSTEVLLDHLKAHAEEKVPSG [P21V]
5. LELGSTEVNLDHLKAHAEEKPPSG [L9N]
6. LELGSTEVLCDHLKAHAEEKPPSG [L10C]
7. LELGSTEVLLDHGKAHAEEKPPSG [L13G]
8. LELGSTEVLLDHLKAHAEEKPPVG [S23V]

4.01
4.24
3.9
4.41
5.71
5.35
5.46
4.34

Could you tell me protein stability index for each of these variants? They are listed below.
1. LELGSTEVLLDHTKAHAEEKPPSG [L13T]
2. LELGSTEVLLDHAKAHAEEKPPSG [L13A]
3. LELGSTEVLLDHLKAHAEEKPASG [P22A]

1. 5.46
2. 5.38
3. 4.49

Could you tell me protein stability index for each of these variants? They are listed below.
1. LELGSTEVLLDHLKAHAAEKPPSG [E18A]
2. LELGSTEVLLDHLEAHAEEKPPSG [K14E]
3. LETGSTEVLLDHLKAHAEEKPPSG [L3T]
4. LELGSTEVLLDHLKAHAEEKPPLG [S23L]
5. LELGSTEVLLDHLKAHAEEKPSSG [P22S]

3.45
5.5
5.18
4.22
4.79

Could you tell me protein stability index for each of these variants? They are listed below.
1. LELGSTEVLLDHLKAHAEEKPPRG [S23R]
2. LELGSTEVLLDHLKAHAEEKAPSG [P21A]
3. LELGSTEVLLDHLKARAEEKPPSG [H16R]
4. LELGSTEVLLDHLKAHAEEKPPKG [S23K]

4.4
4.8
4.28
4.28

Could you tell me protein stability index for each of these variants? They are listed below.
1. LELGSTEELLDHLKAHAEEKPPSG [V8E]
2. LELGSTEVLLDHLKAHAELKPPSG [E19L]
3. LELGSTEVLLDHLCAHAEEKPPSG [K14C]
4. LNLGSTEVLLDHLKAHAEEKPPSG [E2N]
5. LELGSSEVLLDHLKAHAEEKPPSG [T6S]
6. LELGSTEVLLDHHKAHAEEKPPSG [L13H]
7. LELESTEVLLDHLKAHAEEKPPSG [G4E]

1: 5.29; 2: 2.64; 3: 4.69; 4: 4.69; 5: 4.71; 6: 5.61; 7: 3.85

Could you tell me protein stability index for each of these variants? They are listed below.
1. LELGSTEVLLDHMKAHAEEKPPSG [L13M]
2. LELGTTEVLLDHLKAHAEEKPPSG [S5T]
3. LELGSTEVLEDHLKAHAEEKPPSG [L10E]
4. LELGSQEVLLDHLKAHAEEKPPSG [T6Q]

1: 5.09; 2: 4.44; 3: 4.86; 4: 5.22

The reported measurements were obtained from the supplement of paper PMC10567573.
